Recorded GI50 by entry
# Tested on: OVCAR3 cells
# Method notes: MTT proliferation assay, OVCAR3;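 note: compound given as an 8- or 10-point series, one day after plating, with exposure covering roughly 3-4 cell doublings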
# Format: cell-based
# Condition notes: 5 days compound exposure, 1:3 serial dilution starting at 10 μM
*1 amine or outer side, *2 acyl side, *3 side chain or, on linkers, in order; H or OH if unused. Where a SMILES comes first, the peptide text is derived from it. Bridges are numbered along the chain shown (N, C = ends). [ ]: non-standard residue; d: D form. The star is where a group is joined. X91 = COc1cc(-c2ccc(Cl)cc2C[C@@H](C(=O)[*:2])N(C)[*:1])ccc1N1CCOCC1; NMehhhLys(Me) = CN([C@@H](CCCCCCCN(C)[*:3])C(=O)[*:2])[*:1]; X22 = CN([C@@H](Cc1cc(Cl)ccc1-c1cnn(C)c1)C(=O)[*:2])[*:1]; X44 = Cc1nnc(-c2ccc(Cl)cc2C[C@@H](C(=O)[*:2])N(C)[*:1])o1; Cyclobutanecarbonyl(1-CF3) = O=C(C1(C(F)(F)F)CCC1)*; cBuCO(3,3-F2-1-CF3) = O=C(C1(C(F)(F)F)CC(F)(F)C1)*; Pro(trans-4-F) = O=C(O)[C@@H]1C[C@@H](F)CN1; Gly(cPr) = N[C@H](C(=O)O)C1CC1
State the answer as a number, implicitly in µM.

IN: Request the reported GI50 associated with Cc1nnc(-c2ccc(Cl)cc2C[C@H]2C(=O)N(C)CCCCCCC[C@H](N(C)C(=O)[C@@H](NC(=O)[C@@H]3C[C@@H](F)CN3C(=O)C3(C(F)(F)F)CCC3)C3CC3)C(=O)N[C@@H](CC(C)C)C(=O)N2C)o1 [Example 163] ({Cyclobutanecarbonyl(1-CF3)}-[Pro(trans-4-F)][Gly(cPr)][NMehhhLys(Me)]L[X44]; lactam 3-C)
OUT: 0.01

IN: Request the reported GI50 associated with COc1cc(-c2ccc(Cl)cc2C[C@H]2C(=O)N(C)CCCCCCC[C@H](N(C)C(=O)[C@@H](NC(=O)[C@@H]3C[C@@H](F)CN3C(=O)C3(C(F)(F)F)CC(F)(F)C3)C3CC3)C(=O)N[C@@H](CC(C)C)C(=O)N2C)ccc1N1CCOCC1 [Example 367] ({cBuCO(3,3-F2-1-CF3)}-[Pro(trans-4-F)][Gly(cPr)][NMehhhLys(Me)]L[X91]; lactam 3-C)
OUT: 0.01

IN: Request the reported GI50 associated with CC(C)C[C@@H]1NC(=O)[C@@H](N(C)C(=O)[C@@H](NC(=O)[C@@H]2C[C@@H](F)CN2C(=O)C2(C(F)(F)F)CC(F)(F)C2)C2CC2)CCCCCCCN(C)C(=O)[C@H](Cc2cc(Cl)ccc2-c2cnn(C)c2)N(C)C1=O [Example 49] ({cBuCO(3,3-F2-1-CF3)}-[Pro(trans-4-F)][Gly(cPr)][NMehhhLys(Me)]L[X22]; lactam 3-C)
OUT: 0.01

---

# Assay target: CyclinB1/CDK1 (Homo sapiens, UniProt P14635)
# Construct: purchased Eurofins, discovery 14-450
# Method notes: Fluorescence Polarization (FP) competitive binding assay, Cyclin B1/Cdk1;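 note: fluorescence polarization read after equilibration at room temperature, with IC50 taken from serially diluted dose-response curves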
# Condition notes: 10 nM Cyclin B1/Cdk1, 2 nM FAM probe; average of 2-3 independent experiments; read-out: Cyclin B FP IC50
*1 amine or outer side, *2 acyl side, *3 side chain or, on linkers, in order; H or OH if unused. Where a SMILES comes first, the peptide text is derived from it. Bridges are numbered along the chain shown (N, C = ends). [ ]: non-standard residue; d: D form. The star is where a group is joined. X108 = CN([C@@H](Cc1cc(Cl)ccc1-c1ccc(CN2CCOCC2)cc1)C(=O)[*:2])[*:1]; X87 = CN([C@@H](Cc1cc(F)ccc1-c1ccc(N2CCOCC2)cc1)C(=O)[*:2])[*:1]; X183 = CN([C@@H](Cc1cc(Cl)ccc1-c1ccc2nncn2c1)C(=O)[*:2])[*:1]; NMehhhLys(Me) = CN([C@@H](CCCCCCCN(C)[*:3])C(=O)[*:2])[*:1]; cBuCO(3,3-F2-1-CF3) = O=C(C1(C(F)(F)F)CC(F)(F)C1)*; Pro(trans-4-F) = O=C(O)[C@@H]1C[C@@H](F)CN1; Gly(cPr) = N[C@H](C(=O)O)C1CC1
Recorded pIC50 by entry
The value called pIC50 is obtained by taking minus log10 of the concentration in mol/L.

As a guide, the following entries are already answered.
molecule="CC(C)C[C@@H]1NC(=O)[C@@H](N(C)C(=O)[C@@H](NC(=O)[C@@H]2C[C@@H](F)CN2C(=O)C2(C(F)(F)F)CC(F)(F)C2)C2CC2)CCCCCCCN(C)C(=O)[C@H](Cc2cc(Cl)ccc2-c2ccc3nncn3c2)N(C)C1=O [Example 178] ({cBuCO(3,3-F2-1-CF3)}-[Pro(trans-4-F)][Gly(cPr)][NMehhhLys(Me)]L[X183]; lactam 3-C)" assay_value=7.70
molecule="CC(C)C[C@@H]1NC(=O)[C@@H](N(C)C(=O)[C@@H](NC(=O)[C@@H]2C[C@@H](F)CN2C(=O)C2(C(F)(F)F)CC(F)(F)C2)C2CC2)CCCCCCCN(C)C(=O)[C@H](Cc2cc(Cl)ccc2-c2ccc(CN3CCOCC3)cc2)N(C)C1=O [Example 359] ({cBuCO(3,3-F2-1-CF3)}-[Pro(trans-4-F)][Gly(cPr)][NMehhhLys(Me)]L[X108]; lactam 3-C)" assay_value=7.70

IN: Request the reported pIC50 associated with CC(C)C[C@@H]1NC(=O)[C@@H](N(C)C(=O)[C@@H](NC(=O)[C@@H]2C[C@@H](F)CN2C(=O)C2(C(F)(F)F)CC(F)(F)C2)C2CC2)CCCCCCCN(C)C(=O)[C@H](Cc2cc(F)ccc2-c2ccc(N3CCOCC3)cc2)N(C)C1=O [Example 337] ({cBuCO(3,3-F2-1-CF3)}-[Pro(trans-4-F)][Gly(cPr)][NMehhhLys(Me)]L[X87]; lactam 3-C)
OUT: 7.70

---

Recorded GI50 by entry
# Test system: NCI-H1048 cells
# Method notes: MTT proliferation assay, NCI-H1048;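 note: Dose-response in 96-well plates over 8 or 10 concentration points, with exposure spanning 3-4 cell doublings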
# Type: cell-based
# Condition notes: 5 days compound exposure, 1:3 serial dilution starting at 10 μM
*1 amine or outer side, *2 acyl side, *3 side chain or, on linkers, in order; H or OH if unused. Where a SMILES comes first, the peptide text is derived from it. Bridges are numbered along the chain shown (N, C = ends). [ ]: non-standard residue; d: D form. The star is where a group is joined. X110 = CC(C)C(=O)N1[C@H]2CC[C@@H]1C=C(c1ccc(Cl)cc1C[C@@H](C(=O)[*:2])N(C)[*:1])C2; X157 = CN([C@@H](Cc1cc(Cl)ccc1-c1ccc(S(=O)(=O)N2CCOCC2)cc1)C(=O)[*:2])[*:1]; X148 = CN([C@@H](Cc1cc(Cl)ccc1-c1ccc(S(C)(=O)=O)nc1)C(=O)[*:2])[*:1]; NMehhhLys(Me) = CN([C@@H](CCCCCCCN(C)[*:3])C(=O)[*:2])[*:1]; NMe(hhhLys) = CN([C@@H](CCCCCCCN[*:3])C(=O)[*:2])[*:1]; cBuCO(3,3-F2-1-CF3) = O=C(C1(C(F)(F)F)CC(F)(F)C1)*; Pro(trans-4-F) = O=C(O)[C@@H]1C[C@@H](F)CN1; Gly(cPr) = N[C@H](C(=O)O)C1CC1
State the answer as a number, implicitly in µM.

As a guide, the following entries are already answered.
compound="CC(C)C[C@@H]1NC(=O)[C@@H](N(C)C(=O)[C@@H](NC(=O)[C@@H]2C[C@@H](F)CN2C(=O)C2(C(F)(F)F)CC(F)(F)C2)C2CC2)CCCCCCCN(C)C(=O)[C@H](Cc2cc(Cl)ccc2-c2ccc(S(=O)(=O)N3CCOCC3)cc2)N(C)C1=O [Example 354] ({cBuCO(3,3-F2-1-CF3)}-[Pro(trans-4-F)][Gly(cPr)][NMehhhLys(Me)]L[X157]; lactam 3-C)" unit=µM assay_value=0.01
compound=CC(C)C[C@@H]1NC(=O)[C@@H](N(C)C(=O)[C@@H](NC(=O)[C@@H]2C[C@@H](F)CN2C(=O)C2(C(F)(F)F)CC(F)(F)C2)C2CC2)C/C=C\CCCCN(C)C(=O)[C@H](Cc2cc(F)ccc2-c2cnn(S(C)(=O)=O)c2)N(C)C1=O unit=µM assay_value=0.01

IN: Checklist item: GI50 tested on NCI-H1048 cells, entry CC(C)C[C@@H]1NC(=O)[C@@H](N(C)C(=O)[C@@H](NC(=O)[C@@H]2C[C@@H](F)CN2C(=O)C2(C(F)(F)F)CC(F)(F)C2)C2CC2)CCCCCCCNC(=O)[C@H](Cc2cc(Cl)ccc2C2=C[C@H]3CC[C@@H](C2)N3C(=O)C(C)C)N(C)C1=O [Example 313] ({cBuCO(3,3-F2-1-CF3)}-[Pro(trans-4-F)][Gly(cPr)][NMe(hhhLys)]L[X110]; lactam 3-C) , value?
OUT: 0.01

IN: Checklist item: GI50 tested on NCI-H1048 cells, entry CC(C)C[C@@H]1NC(=O)[C@@H](N(C)C(=O)[C@@H](NC(=O)[C@@H]2C[C@@H](F)CN2C(=O)C2(C(F)(F)F)CC(F)(F)C2)C2CC2)CCCCCCCN(C)C(=O)[C@H](Cc2cc(Cl)ccc2-c2ccc(S(C)(=O)=O)nc2)N(C)C1=O [Example 201] ({cBuCO(3,3-F2-1-CF3)}-[Pro(trans-4-F)][Gly(cPr)][NMehhhLys(Me)]L[X148]; lactam 3-C) , value?
OUT: 0.06
